Reported IC50 for target or system Xanthine dehydrogenase/oxidase (Bos taurus), by entry.

compound	IC50 [µM]
COc1c(-c2ccc(O)cc2)oc2cc(O)cc(O)c2c1=O [ISOKAEMPFERIDE]	0.004
COc1ccc(-c2oc3cc(OC)cc(O)c3c(=O)c2OC)cc1	9.79
COc1ccc(-c2oc3cc(OC)c(OC)c(O)c3c(=O)c2OC)cc1	14.9
COc1cc(O)c2c(=O)c(OC)c(-c3cc(O)c(OC)c(OC)c3)oc2c1	21
COc1cc(-c2oc3cc(O)c(OC)c(O)c3c(=O)c2OC)cc(OC)c1OC	4.54
COc1ccc(-c2oc3cc(O)c(OC)c(O)c3c(=O)c2OC)cc1 [SANTIN]	0.22
